src = patent US20070010658A1

Known koff of a selection of binders
# study-target: T1, TNF alpha (UniProt P01375 77-233, limits assumed)
# T1 construct: also called tumour necrosis factor; TNFSF2
# T1 sequence (P01375 77-233 limits assumed): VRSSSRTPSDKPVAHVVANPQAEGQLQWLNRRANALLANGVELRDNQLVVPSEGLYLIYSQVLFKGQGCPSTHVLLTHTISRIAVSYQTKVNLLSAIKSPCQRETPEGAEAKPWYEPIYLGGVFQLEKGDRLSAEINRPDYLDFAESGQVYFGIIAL
# procedure-details: SPR (BIAcore 3000), TNF alpha captured by immobilised antibody AHC3712, binder injected

binder	koff [s⁻¹]
TN-2-D (trimeric) (designed binder, also called trimeric version of TN3-2-D) EPPTQKPKKIVNAKKDVVNTKMFEELKSRLDTLAQEVALLKEQQALQTVCLKGTKVHMKCFLAFTQTKTFHEASEDCISRGGTLSTPQTGSENDALYEYLRQSVGNEAEIWLGLNKVRSRYFWIDMTGTRIAYKNWETEITAQPDPNNRENCAVLSGAANGKWFGKRCRDQLPYICQFGIV	0.00207
TN-2-B (trimeric) (designed binder, also called trimeric version of TN3-2-B) EPPTQKPKKIVNAKKDVVNTKMFEELKSRLDTLAQEVALLKEQQALQTVCLKGTKVHMKCFLAFTQTKTFHEASEDCISRGGTLSTPQTGSENDALYEYLRQSVGNEAEIWLGLNKVRSRYFWMDMTGTRIAYKNWETEITAQPDPTNNENCAVLSGAANGKWFGKRCRDQLPYICQFGIV	0.000736
